# reported degraded at 24 h; entries follow
# test_details: Chemical stability (relative purity loss) of peptide compounds in buffer formulations (Table 6)
# Assay type: physicochemical
# measurement_setup: 50 mm hcl + acetonitrile, Buffer pH 1.1 (head; method: 50 mM HCl pH 1.2 + acetonitrile 3:1), 2° C. and 37° C., read-out: Chemical stability (relative purity loss), Buffer pH 1.1
Numbered stars: 1 amine (or outer) side, 2 acyl side, 3 side chain; on linkers, the order of the positions; unused ones are H or OH. Bridge positions count the residues as written; N and C are the ends. Square brackets hold non-standard residues; d marks the D form. Peptide text beside a SMILES is read from it. * marks the point of attachment. Lys(Me,(CH2)4NMe(CH2)4CO) = CN(CCCCC(=O)[*:3])CCCCN(C)CCCC[C@H](N[*:1])C(=O)[*:2]; Trp(7-Me) = Cc1cccc2c(C[C@H](N)C(=O)O)c[nH]c12; Trp(1-Me) = Cn1cc(C[C@H](N)C(=O)O)c2ccccc21; 2Nal = N[C@@H](Cc1ccc2ccccc2c1)C(=O)O; 3Pal = N[C@@H](Cc1cccnc1)C(=O)O; Aun = NCCCCCCCCCCC(=O)O; Thp = NC1(C(=O)O)CCOCC1; Me2NCH2CH2 = CN(C)CC*; Aib = CC(C)(N)C(=O)O; Sar = CNCC(=O)O
Unit % implied. Number only.

- compound: "CN(C)CCOc1ccc(C[C@@H]2NC(=O)C3(CCOCC3)NC(=O)[C@H](CCC(N)=O)NC(=O)[C@H](Cc3cn(C)c4ccccc34)NC(=O)CCCCN(C)CCCCN(C)CCCC[C@@H](C(=O)NCC(=O)N[C@@H](Cc3cccnc3)C(=O)N(C)CC(N)=O)NC(=O)C(C)(C)NC(=O)[C@H](Cc3ccc4ccccc4c3)NC2=O)cc1 [compound 30] ([Trp(1-Me)]Q[Thp]Y(Me2NCH2CH2)[2Nal][Aib][Lys(Me,(CH2)4NMe(CH2)4CO)]G[3Pal][Sar]-NH2; lactam N-7)"
  degraded at 24 h / %: 6.2

Now turn to the next compound.
-- ask Query (compound): Cc1cccc2c(C[C@@H]3NC(=O)CCCCCCCCCCNC(=O)CC[C@@H](C(=O)N[C@@H](CC(N)=O)C(=O)N[C@@H](Cc4cccnc4)C(=O)N(C)CC(N)=O)NC(=O)C(C)(C)NC(=O)[C@H](Cc4ccc5ccccc5c4)NC(=O)[C@H](Cc4ccc(OCCN(C)C)cc4)NC(=O)C4(CCOCC4)NC(=O)[C@H](CC(C)C)NC3=O)c[nH]c12 [compound 7] ([Aun][Trp(7-Me)]L[Thp]Y(Me2NCH2CH2)[2Nal][Aib]EN[3Pal][Sar]-NH2; lactam N-8) ; field requested: degraded at 24 h
-- reply 3.9

###

// values below are reported remaining at 4 h, 1 µM
# test_details: Protease stability in simulated intestinal fluids (FaSSIF) (Table 7)
# Type: in vitro ADME
# measurement_setup: fassif with pancreatin, 240 min, 37° C., read-out: Remaining percentage of peptide compound, FaSSIF 240 (min)
Numbered stars: 1 amine (or outer) side, 2 acyl side, 3 side chain; on linkers, the order of the positions; unused ones are H or OH. Bridge positions count the residues as written; N and C are the ends. Square brackets hold non-standard residues; d marks the D form. Peptide text beside a SMILES is read from it. * marks the point of attachment. Lys(Me,(CH2)4NMe(CH2)4CO) = CN(CCCCC(=O)[*:3])CCCCN(C)CCCC[C@H](N[*:1])C(=O)[*:2]; Trp(7-Me) = Cc1cccc2c(C[C@H](N)C(=O)O)c[nH]c12; Trp(1-Me) = Cn1cc(C[C@H](N)C(=O)O)c2ccccc21; NH(2-(3-pyridyl)ethyl) = c1cncc(CCN*)c1; 2Nal = N[C@@H](Cc1ccc2ccccc2c1)C(=O)O; 3Pal = N[C@@H](Cc1cccnc1)C(=O)O; Thp = NC1(C(=O)O)CCOCC1; Me2NCH2CH2 = CN(C)CC*; Aib = CC(C)(N)C(=O)O; Aoc = NCCCCCCCC(=O)O; Sar = CNCC(=O)O
Just the number in %, nothing appended.

Some solved entries appear below for comparison.
- molecule: "CN(C)CCOc1ccc(C[C@@H]2NC(=O)C3(CCOCC3)NC(=O)[C@H](CCC(N)=O)NC(=O)[C@H](Cc3c[nH]c4ccccc34)NC(=O)CCCCN(C)CCCCN(C)CCCC[C@@H](C(=O)N[C@@H](CO)C(=O)N[C@@H](Cc3cccnc3)C(=O)N(C)CC(N)=O)NC(=O)C(C)(C)NC(=O)[C@H](Cc3ccc4ccccc4c3)NC2=O)cc1 [compound 41] (WQ[Thp]Y(Me2NCH2CH2)[2Nal][Aib][Lys(Me,(CH2)4NMe(CH2)4CO)]S[3Pal][Sar]-NH2; lactam N-7)"
  remaining at 4 h, 1 µM [%]: 81
- molecule: "CN(C)CCOc1ccc(C[C@@H]2NC(=O)C3(CCOCC3)NC(=O)[C@H](CCC(N)=O)NC(=O)[C@H](Cc3cn(C)c4ccccc34)NC(=O)CCCCN(C)CCCCN(C)CCCC[C@@H](C(=O)NCC(=O)NCCc3cccnc3)NC(=O)C(C)(C)NC(=O)[C@H](Cc3ccc4ccccc4c3)NC2=O)cc1 [compound 25] ([Trp(1-Me)]Q[Thp]Y(Me2NCH2CH2)[2Nal][Aib][Lys(Me,(CH2)4NMe(CH2)4CO)]G-{NH(2-(3-pyridyl)ethyl)}; lactam N-7)"
  remaining at 4 h, 1 µM [%]: 96

-- ask # lookup: remaining at 4 h, 1 µM of Cc1cccc2c(C[C@@H]3NC(=O)CCCCCCCNC(=O)CC[C@@H](C(=O)N[C@@H](CC(N)=O)C(=O)N[C@@H](Cc4cccnc4)C(=O)N(C)CC(N)=O)NC(=O)C(C)(C)NC(=O)[C@H](Cc4ccc5ccccc5c4)NC(=O)[C@H](Cc4ccc(OCCN(C)C)cc4)NC(=O)C4(CCOCC4)NC(=O)[C@H](CC(C)C)NC3=O)c[nH]c12 [compound 9] ([Aoc][Trp(7-Me)]L[Thp]Y(Me2NCH2CH2)[2Nal][Aib]EN[3Pal][Sar]-NH2; lactam N-8)
-- reply 74

Origin of the recorded values: patent US20260297129A1
